# Test system: immunomagnetically-selected CD3+ cells
# PROCEDURE DETAILS: Phototoxicity: cell survival by FACS (Annexin 5/7AAD) 18 hours after PD
# Format: cell-based
# RECORDED CONDITIONS: 5.0×10^−8 M, 5 J/cm^2 light, FACS 18 hours after PD
VALUE KIND: cell death after PD

CCN(CC)C(=O)c1ccc(-c2c3ccc(=[N+](C)C)cc-3sc3cc4c(cc23)C(C)(C)CCN4C)s1.[Cl-] [4-S—Cl] | Significant cell death
CN1CCC(C)(C)c2cc3c(-c4ccc(C(=O)N5CCCCC5)s4)c4ccc(=[N+](C)C)cc-4sc3cc21.[Cl-] [2-S—Cl] | Significant cell death
CCN(CC)C(=O)c1ccc(-c2c3ccc(=[N+](C)C)cc-3[se]c3cc4c(cc23)C(C)(C)CCN4C)s1.[Cl-] [4-Se—Cl] | minimal cell death
CN1CCC(C)(C)c2cc3c(-c4ccc(C(=O)N5CCCCC5)s4)c4ccc(=[N+](C)C)cc-4[se]c3cc21.[Cl-] [2-Se—Cl] | minimal cell death

---

# RECORDED CONDITIONS: n-octanol / PBS pH 7.4, shake flask
Assign class by log P: not lower than 2 means Fulfilled; lower than 2 means Not fulfilled.

CCN(CC)C(=O)c1ccc(-c2c3ccc(=[N+](C)C)cc-3sc3cc4c(cc23)C(C)(C)CCN4C)s1.[Cl-] | Fulfilled
CCN(CC)C(=S)c1ccc(-c2c3ccc(N(C)C)cc3[s+]c3c4c5c(cc23)CCCN5CCC4)s1.[Cl-] | Fulfilled
CN1CCC(C)(C)c2cc3c(-c4ccc(C(=O)N5CCCCC5)s4)c4ccc(=[N+](C)C)cc-4sc3cc21.F[P-](F)(F)(F)(F)F | Not fulfilled
CN(C)c1ccc2c(-c3ccc(C(=S)N4CCCCC4)s3)c3cc4c5c(c3[se+]c2c1)CCCN5CCC4.[Cl-] | Fulfilled
CN(C)c1ccc2c(-c3ccc(C(=S)N4CCCCC4)s3)c3cc4c5c(c3[s+]c2c1)CCCN5CCC4.[Cl-] | Fulfilled
CN1CCC(C)(C)c2cc3c(-c4ccc(C(=S)N5CCCCC5)s4)c4ccc(=[N+](C)C)cc-4[se]c3cc21.[Cl-] | Not fulfilled
CN1CCC(C)(C)c2cc3c(-c4ccc(C(=S)N5CCCCC5)s4)c4ccc(=[N+](C)C)cc-4sc3cc21.[Cl-] | Not fulfilled
CN(C)c1ccc2c(-c3ccc(C(=O)N4CCCCC4)s3)c3cc4c5c(c3[s+]c2c1)CCCN5CCC4.[Cl-] | Fulfilled
CCN(CC)C(=O)c1ccc(-c2c3ccc(=[N+](C)C)cc-3[se]c3cc4c(cc23)C(C)(C)CCN4C)s1.[Cl-] | Fulfilled
CCN(CC)C(=O)c1ccc(-c2c3ccc(N(C)C)cc3[s+]c3c4c5c(cc23)CCCN5CCC4)s1.[Cl-] | Fulfilled
CN1CCC(C)(C)c2cc3c(-c4ccc(C(=S)N5CCCCC5)s4)c4ccc(=[N+](C)C)cc-4sc3cc21.F[P-](F)(F)(F)(F)F | Not fulfilled
CN(C)c1ccc2c(-c3ccc(C(=O)N4CCCCC4)s3)c3cc4c5c(c3[s+]c2c1)CCCN5CCC4.F[P-](F)(F)(F)(F)F | Not fulfilled
CCN(CC)C(=S)c1ccc(-c2c3ccc(=[N+](C)C)cc-3sc3cc4c(cc23)C(C)(C)CCN4C)s1.F[P-](F)(F)(F)(F)F | Not fulfilled

Source: patent US20170096636A1
